All figures here come from patent US10774068B2.

# Test Target: MST2 (Homo sapiens (Human), UniProt Q13188)
# Sequence (Q13188 whole entry): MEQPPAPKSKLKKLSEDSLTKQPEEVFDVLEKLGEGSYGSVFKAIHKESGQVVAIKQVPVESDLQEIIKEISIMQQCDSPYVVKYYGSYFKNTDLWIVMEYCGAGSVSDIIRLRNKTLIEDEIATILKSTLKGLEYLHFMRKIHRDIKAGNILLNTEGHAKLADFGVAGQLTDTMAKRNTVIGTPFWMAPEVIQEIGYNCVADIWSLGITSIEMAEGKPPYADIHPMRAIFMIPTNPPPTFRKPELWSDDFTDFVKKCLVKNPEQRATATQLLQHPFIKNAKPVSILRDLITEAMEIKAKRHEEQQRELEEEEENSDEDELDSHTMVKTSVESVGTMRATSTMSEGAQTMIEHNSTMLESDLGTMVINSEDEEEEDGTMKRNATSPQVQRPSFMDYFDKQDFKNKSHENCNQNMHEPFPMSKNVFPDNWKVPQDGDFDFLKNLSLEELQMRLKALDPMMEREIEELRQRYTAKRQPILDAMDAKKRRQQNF
# Measurement Protocol: MST2 biochemical LanthaScreen Eu Kinase Binding Assay
# Test Parameters: read-out: Kinase Binding assay-MST2 IC50
# Description: MST1 and MST2 biochemical LanthaScreen Eu Kinase Binding Assay was based on the binding and displacement of kinase tracer to the kinase of interest. Compounds in 1000×DMSO stock solution was dispensed using automated dispensing system (Labcyte) to 384 well Corning Microplate at 15 nL, 5 uL of Kinase buffer A was added to each well. Plates were shaken and incubated for 1 min to ensure well dissolution of compounds.
pIC50: −log10 of the molar value.
This section presents compounds with their documented pIC50 values.
Experimental Endpoint: pIC50

INSERT INTO results (chem_smiles, reported_measurement) VALUES
  ('CCOc1cc2ncc(C#N)c(Nc3ccc(OCc4nc(Br)ccc4C)cc3Cl)c2cc1NC(=O)CCCN(C)C', '> 7.00'),
  ('CCOc1cc2ncc(C#N)c(Nc3ccc(OCc4ncccc4CC)c(Cl)c3)c2cc1NC(=O)CCCN(C)C', '> 7.00'),
  ('CCOc1cc2ncc(C#N)c(Nc3ccc(OCc4ncccc4C)c(Br)c3)c2cc1NC(=O)CCCN(C)C', '> 7.00'),
  ('CCOc1cc2ncc(C#N)c(Nc3ccc(OCc4ncccc4Cl)c(Cl)c3)c2cc1NC(=O)CCCN(C)C', '> 7.00'),
  ('CCOc1cc2ncc(C#N)c(Nc3cc(C)c(OCc4ncccc4C)cc3C)c2cc1NC(=O)/C=C/CN(C)C', '> 7.00'),
  ('CCOc1cc2ncc(C#N)c(Nc3ccc(OCc4ncccc4C)c(C)c3C)c2cc1NC(=O)CCCN(C)C', '> 7.00'),
  ('CCOc1cc2ncc(C#N)c(Nc3ccc(OCc4ncccc4CO)cc3Cl)c2cc1NC(=O)CCCN(C)C', '> 7.00'),
  ('CCOc1cc2ncc(C#N)c(Nc3ccc(OCc4cccc(Br)n4)c(Cl)c3)c2cc1NC(=O)CCCN(C)C', '> 7.00'),
  ('CCOc1cc2ncc(C#N)c(Nc3ccc(OCc4ncccc4C)cc3Cl)c2cc1NC(=O)CCCN(C)C', '> 7.00'),
  ('CCOc1cc2ncc(C#N)c(Nc3ccc(OCc4cn5cccc(C)c5n4)c(Cl)c3)c2cc1NC(=O)CCCN(C)C', '> 7.00'),
  ('CCOc1cc2ncc(C#N)c(Nc3ccc(OCc4ncccc4C)c(OC)c3)c2cc1NC(=O)CCCN(C)C', '> 7.00'),
  ('CCOc1cc2ncc(C#N)c(Nc3ccc(OCc4ncccc4C#N)c(Cl)c3)c2cc1NC(=O)CCCN(C)C', '> 7.00'),
  ('CCOc1cc2ncc(C#N)c(Nc3ccc(OCc4cccc(F)n4)c(Cl)c3)c2cc1NC(=O)CCCN(C)C', '> 7.00'),
  ('CCOc1cc2ncc(C#N)c(Nc3cccc(Cl)c3)c2cc1NC(C)=O', '> 7.00'),
  ('CCOc1cc2ncc(C#N)c(Nc3cc(Cl)c(OCc4ncccc4C)cc3C)c2cc1NC(=O)CCCN(C)C', '> 7.00'),
  ('CCOc1cc2ncc(C#N)c(Nc3ccc(OCc4ncccc4C)cc3F)c2cc1NC(=O)CCCN(C)C', '> 7.00');
